# assay.explanation: qHTS for H2AX Agonists against the NCATS CANVASS Library (AID 1347378);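 further: phospho-H2AX S139 level in CHO-K1 lysates by TR-FRET emission ratio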
# measurement.context: CHO-K1 H2AX phosphorylation, HTRF TR-FRET, 3 h; series mostly up to 76.9 µM
Results filed as inconclusive are left out. The source made the active and inactive calls. The call rests on the fitted dose curve; in most records, active means well fitted activation curve with a large enough effect; inconclusive means small, poorly fitted or top-dose-only effect; inactive means flat fitted curve, though single readings scatter.
Bench note: report the call from T (active), F (inactive)

molecule: O=C1CCC(=O)N(O)CCCCCNC(=O)CCC(=O)N(O)CCCCCNC(=O)CCC(=O)N(O)CCCCCN1
category: F
//
molecule: C/C=C(/C)c1c(Cl)c(O)c(C)c2c1Oc1c(Cl)c(O)c(Cl)c(C)c1C(=O)O2
category: F
//
molecule: C=C1C[C@H]2O[C@@H]3[C@@H]4[C@H](CC[C@@](C)(O)[C@@H]42)[C@H](C)COC3(C)[C@@H](OC(=O)CCCCCCC)CC1=O (stereo not given in full)
category: F
//
molecule: Cc1occ2c1C(=O)c1c(cc(O)c(O)c1O)C2=O
category: T
//
molecule: CO[C@H]1[C@@H](OC(=O)/C(C)=C\[C@@H]2O[C@@H]2[C@H]2O[C@H]2C)[C@H](O)[C@H](OCC23C[C@@H]4[C@H](C)CC[C@H]4C4(C=O)CC2C=C(C(C)C)C34C(=O)O)O[C@@H]1C (stereo not given in full)
category: F

## Input Hi team, can someone confirm the assay call for CO/C=C/C(=O)c1cc2cnc3c(N)cc(=NC(=O)C(C)C)c([nH]1)c23 ?
## Output F

## Input Hi team, can someone confirm the assay call for C/C1=C/[C@@H](C)[C@H](O)[C@@H](O)/C=C/CC/C=C/C(=O)O[C@@H]1[C@H](C)C(=O)CCCC1CC(=O)NC(=O)C1 ?
## Output F

## Input Hi team, can someone confirm the assay call for COc1cc2c(cc1OC)[C@@H](c1ccc3c(c1)OCO3)C(C)[C@@H](C)C2=O (stereo not given in full) ?
## Output F
